Ref: the supplement of paper PMC10567573

Assign protein stability index to each entry below.
B1: GNB5 (parent)
chain: YYPSGDAFASGSDDATCRLYDLRA

# Variants of: B1
# Protocol Details: protein stability index of a GFP-peptide fusion (GPS, HEK-293T) (PSI 1-6); higher = more stable;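 also: lentivirally expressed fusions sorted by FACS into six bins by GFP to DsRed ratio, PSI derived from sequencing read proportions per bin multiplied by bin number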
# Particulars: c terminus: a fixed tail appended
Numbers only.

The following variants have reported results that may help.
1. R18F = 2.84
2. L19M = 2.5
3. G11H = 2.44

// for each variant below, give its protein stability index
1. L22T
2. G5S

a:
1. 2.73
2. 3.09

q: Reported protein stability index for L22F : what is it?
a: 2.64
